target under test: UniProt:P04626
Sequence (P04626 23-1255): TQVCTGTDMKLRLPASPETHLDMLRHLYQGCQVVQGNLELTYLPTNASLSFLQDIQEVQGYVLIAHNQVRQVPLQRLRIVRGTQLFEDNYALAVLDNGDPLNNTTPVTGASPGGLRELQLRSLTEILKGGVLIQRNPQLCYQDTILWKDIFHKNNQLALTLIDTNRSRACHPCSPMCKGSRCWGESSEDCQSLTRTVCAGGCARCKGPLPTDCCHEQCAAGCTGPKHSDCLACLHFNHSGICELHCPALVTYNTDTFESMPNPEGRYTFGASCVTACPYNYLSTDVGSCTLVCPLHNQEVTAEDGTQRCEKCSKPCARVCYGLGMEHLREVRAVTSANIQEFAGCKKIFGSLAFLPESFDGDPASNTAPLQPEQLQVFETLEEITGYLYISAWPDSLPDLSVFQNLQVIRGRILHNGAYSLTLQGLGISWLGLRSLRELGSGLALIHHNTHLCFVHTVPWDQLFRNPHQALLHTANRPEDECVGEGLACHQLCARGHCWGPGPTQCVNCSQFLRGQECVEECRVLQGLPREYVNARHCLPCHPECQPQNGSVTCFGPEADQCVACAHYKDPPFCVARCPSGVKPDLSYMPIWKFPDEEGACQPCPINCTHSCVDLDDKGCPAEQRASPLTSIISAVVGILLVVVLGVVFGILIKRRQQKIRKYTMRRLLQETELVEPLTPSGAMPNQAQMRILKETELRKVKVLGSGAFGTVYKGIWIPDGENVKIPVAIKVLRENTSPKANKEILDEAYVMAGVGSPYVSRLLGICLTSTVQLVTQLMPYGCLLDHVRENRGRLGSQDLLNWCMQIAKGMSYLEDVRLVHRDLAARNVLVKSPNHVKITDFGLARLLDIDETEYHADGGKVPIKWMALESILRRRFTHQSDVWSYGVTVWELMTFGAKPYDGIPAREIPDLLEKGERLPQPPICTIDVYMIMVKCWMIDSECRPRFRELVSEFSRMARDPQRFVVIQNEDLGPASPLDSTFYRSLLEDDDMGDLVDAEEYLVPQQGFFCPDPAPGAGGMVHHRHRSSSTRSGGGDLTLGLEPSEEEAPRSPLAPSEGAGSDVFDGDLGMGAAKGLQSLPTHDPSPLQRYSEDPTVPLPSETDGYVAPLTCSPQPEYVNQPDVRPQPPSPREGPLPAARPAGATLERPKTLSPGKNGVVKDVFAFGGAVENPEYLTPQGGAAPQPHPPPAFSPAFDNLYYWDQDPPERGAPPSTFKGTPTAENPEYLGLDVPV
assay protocol: Kinase panel profiling at 1 µmol/L (MSA or IMAP), percentage inhibition
Assay type: biochemical
condition context: kinase HER2; 1 µmol/L single concentration; read-out: %-inhibition at 1 µmol/L, HER2
endpoint name: inhibition at 1 µM (%)
Quick note: give the figure in %, leave out the unit.

Request body: readout inhibition at 1 µM, system UniProt:P04626, query COC(=O)N[C@@H](C)CNc1nccc(-c2cn(C(C)C)nc2-c2cc(Cl)cc(NS(C)(=O)=O)c2F)n1 [encorafenib] . Return the value.
4.47

Request body: readout inhibition at 1 µM, system UniProt:P04626, query O=C(Nc1cnn2ccc(N3CCC[C@@H]3c3cc(F)ccc3F)nc12)N1CC[C@H](O)C1 [larotrectinib] . Return the value.
-2.32

Request body: readout inhibition at 1 µM, system UniProt:P04626, query Cc1cc(Nc2ncnc3ccc(NC4=NC(C)(C)CO4)cc23)ccc1Oc1ccn2ncnc2c1 [tucatinib] . Return the value.
101

Request body: readout inhibition at 1 µM, system UniProt:P04626, query CCc1nc(C(N)=O)c(Nc2ccc(N3CCC(N4CCN(C)CC4)CC3)c(OC)c2)nc1NC1CCOCC1 [gilteritinib] . Return the value.
15

Request body: readout inhibition at 1 µM, system UniProt:P04626, query CCN1CCN(c2ccc(Nc3cc(N(C)C(=O)Nc4c(Cl)c(OC)cc(OC)c4Cl)ncn3)cc2)CC1 [infigratinib] . Return the value.
4.73

Request body: readout inhibition at 1 µM, system UniProt:P04626, query CN1CCN(c2ccc(C(=O)Nc3n[nH]c4ccc(Cc5cc(F)cc(F)c5)cc34)c(NC3CCOCC3)c2)CC1 [entrectinib] . Return the value.
22

Request body: readout inhibition at 1 µM, system UniProt:P04626, query CCN1C(=O)N(c2c(F)c(OC)cc(OC)c2F)Cc2cnc3[nH]c(CN4CCOCC4)cc3c21 [pemigatinib] . Return the value.
-4

Request body: readout inhibition at 1 µM, system UniProt:P04626, query C[C@H]1Oc2cc(cnc2N)-c2c(nn(C)c2C#N)CN(C)C(=O)c2ccc(F)cc21 [lorlatinib] . Return the value.
21

Request body: readout inhibition at 1 µM, system UniProt:P04626, query Cn1cc(-c2cc3c(N4CCN(c5ncc([C@@](C)(N)c6ccc(F)cc6)cn5)CC4)ncnn3c2)cn1 [avapritinib] . Return the value.
12

Request body: readout inhibition at 1 µM, system UniProt:P04626, query Cn1cnc2c(F)c(Nc3ccc(Br)cc3F)c(C(=O)NOCCO)cc21 [binimetinib] . Return the value.
1.43

Request body: readout inhibition at 1 µM, system UniProt:P04626, query COc1ccc(CN2C3CC2CN(c2ccc(-c4cc(OCC(C)(C)O)cn5ncc(C#N)c45)cn2)C3)cn1 [selpercatinib] . Return the value.
2.47

Request body: readout inhibition at 1 µM, system UniProt:P04626, query C[C@H](Nc1ncnc2nc[nH]c12)c1cc2cccc(Cl)c2c(=O)n1-c1ccccc1 [duvelisib] . Return the value.
19

Request body: readout inhibition at 1 µM, system UniProt:P04626, query Cn1cnc2c(F)c(Nc3ccc(Br)cc3Cl)c(C(=O)NOCCO)cc21 [selumetinib] . Return the value.
3

Request body: readout inhibition at 1 µM, system UniProt:P04626, query CCn1c(=O)c(-c2cc(NC(=O)Nc3ccccc3)c(F)cc2Br)cc2cnc(NC)cc21 [ripretinib] . Return the value.
5.51

Request body: readout inhibition at 1 µM, system UniProt:P04626, query C=CC(=O)N1CCC([C@@H]2CCNc3c(C(N)=O)c(-c4ccc(Oc5ccccc5)cc4)nn32)CC1 [zanubrutinib] . Return the value.
69

Request body: readout inhibition at 1 µM, system UniProt:P04626, query FC(F)(F)c1ccc(CNc2ccc(Cc3c[nH]c4ncc(Cl)cc34)cn2)cn1 [pexidartinib] . Return the value.
6

----------
target under test: panel of 255 wild-type kinases (Homo sapiens)
assay protocol: Kinase panel profiling at 1 µmol/L (MSA or IMAP), percentage inhibition
Assay type: biochemical
condition context: kinase TBK1; 1 µmol/L single concentration; read-out: %-inhibition at 1 µmol/L, TBK1
endpoint name: inhibition at 1 µM (%)
Quick note: give the figure in %, leave out the unit.

Param item = `Cn1cnc2c(F)c(Nc3ccc(Br)cc3F)c(C(=O)NOCCO)cc21` ; retrieve measured inhibition at 1 µM.
0.416

Param item = `O=C(Nc1cnn2ccc(N3CCC[C@@H]3c3cc(F)ccc3F)nc12)N1CC[C@H](O)C1` ; retrieve measured inhibition at 1 µM.
0.0799

Param item = `COc1ccc(CN2C3CC2CN(c2ccc(-c4cc(OCC(C)(C)O)cn5ncc(C#N)c45)cn2)C3)cn1` ; retrieve measured inhibition at 1 µM.
12

Param item = `Cn1cnc2c(F)c(Nc3ccc(Br)cc3Cl)c(C(=O)NOCCO)cc21` ; retrieve measured inhibition at 1 µM.
-1.18

----------
target under test: panel of 255 wild-type kinases (Homo sapiens, UniProt P00533)
Sequence (P00533 25-1210): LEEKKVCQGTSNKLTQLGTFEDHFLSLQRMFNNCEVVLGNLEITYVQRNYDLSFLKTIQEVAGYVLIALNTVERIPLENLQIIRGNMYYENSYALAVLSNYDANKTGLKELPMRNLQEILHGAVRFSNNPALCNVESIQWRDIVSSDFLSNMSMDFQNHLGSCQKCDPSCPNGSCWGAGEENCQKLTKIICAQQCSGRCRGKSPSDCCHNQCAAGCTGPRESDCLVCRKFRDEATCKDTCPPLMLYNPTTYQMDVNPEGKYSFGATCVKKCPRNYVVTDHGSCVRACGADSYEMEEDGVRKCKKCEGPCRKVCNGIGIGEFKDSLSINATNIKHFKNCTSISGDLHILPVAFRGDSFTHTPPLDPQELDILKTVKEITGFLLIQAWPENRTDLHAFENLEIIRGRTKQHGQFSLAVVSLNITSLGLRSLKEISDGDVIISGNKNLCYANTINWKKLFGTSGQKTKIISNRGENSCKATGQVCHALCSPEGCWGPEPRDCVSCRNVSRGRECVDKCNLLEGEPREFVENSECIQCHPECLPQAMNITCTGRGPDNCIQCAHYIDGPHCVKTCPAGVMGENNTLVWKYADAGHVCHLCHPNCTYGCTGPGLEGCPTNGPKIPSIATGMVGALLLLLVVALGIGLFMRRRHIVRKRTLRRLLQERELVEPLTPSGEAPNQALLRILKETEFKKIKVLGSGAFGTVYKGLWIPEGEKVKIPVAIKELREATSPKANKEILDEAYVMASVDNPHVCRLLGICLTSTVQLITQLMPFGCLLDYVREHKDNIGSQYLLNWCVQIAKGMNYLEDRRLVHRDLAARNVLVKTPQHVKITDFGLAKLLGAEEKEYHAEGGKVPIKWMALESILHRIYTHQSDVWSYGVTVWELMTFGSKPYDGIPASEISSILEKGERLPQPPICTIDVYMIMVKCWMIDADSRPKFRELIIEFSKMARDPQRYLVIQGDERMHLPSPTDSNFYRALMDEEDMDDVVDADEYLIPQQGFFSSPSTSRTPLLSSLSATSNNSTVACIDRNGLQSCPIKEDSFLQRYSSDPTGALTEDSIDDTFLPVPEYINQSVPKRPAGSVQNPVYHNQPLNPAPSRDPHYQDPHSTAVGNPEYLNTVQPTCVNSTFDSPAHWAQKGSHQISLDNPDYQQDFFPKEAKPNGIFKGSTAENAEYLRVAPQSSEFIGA
assay protocol: Kinase panel profiling at 1 µmol/L (MSA or IMAP), percentage inhibition
Type: biochemical
condition context: kinase EGFR; 1 µmol/L single concentration; read-out: %-inhibition at 1 µmol/L, EGFR
endpoint name: inhibition at 1 µM (%)
Quick note: give the figure in %, leave out the unit.

Param item = `CCn1c(=O)c(-c2cc(NC(=O)Nc3ccccc3)c(F)cc2Br)cc2cnc(NC)cc21` ; retrieve measured inhibition at 1 µM.
10

Param item = `Cn1cnc2c(F)c(Nc3ccc(Br)cc3Cl)c(C(=O)NOCCO)cc21` ; retrieve measured inhibition at 1 µM.
26

Param item = `Cn1cnc2c(F)c(Nc3ccc(Br)cc3F)c(C(=O)NOCCO)cc21` ; retrieve measured inhibition at 1 µM.
9

Param item = `C[C@H](Nc1ncnc2nc[nH]c12)c1cc2cccc(Cl)c2c(=O)n1-c1ccccc1` ; retrieve measured inhibition at 1 µM.
6

----------
For each of the compounds below, state its IC50.
System: 134 cancer cell lines
assay protocol: Cell viability assay (ATPlite, 72 hours), IC50 on cancer cell line panel
condition context: Homo sapiens, A204, read-out: IC50 in cell proliferation assay
Quick note: give the figure in µM, leave out the unit.

Request body: readout IC50, system 134 cancer cell lines, query `C[C@@H](Oc1cc(-c2cnn(C3CCNCC3)c2)cnc1N)c1c(Cl)ccc(F)c1Cl` . Return the value.
0.778

Request body: readout IC50, system 134 cancer cell lines, query `C=CC(=O)N1CCC([C@@H]2CCNc3c(C(N)=O)c(-c4ccc(Oc5ccccc5)cc4)nn32)CC1` . Return the value.
27.9

Request body: readout IC50, system 134 cancer cell lines, query `C=CC(=O)N1CCC[C@@H](n2nc(-c3ccc(Oc4ccccc4)cc3)c3c(N)ncnc32)C1` . Return the value.
29.2

----------
Test system: panel of 255 wild-type kinases
assay protocol: Kinase panel profiling at 1 µmol/L (MSA or IMAP), percentage inhibition
Assay type: biochemical
condition context: kinase PKCβ2; 1 µmol/L single concentration
For each of the compounds below, state its %-inhibition at 1 µmol/L, PKCβ2.
Quick note: give the figure in %, leave out the unit.

Param item = `CCN1C(=O)N(c2c(F)c(OC)cc(OC)c2F)Cc2cnc3[nH]c(CN4CCOCC4)cc3c21` ; retrieve measured %-inhibition at 1 µmol/L, PKCβ2.
-1.57

Param item = `Cc1nc(NC(=O)N2CCC[C@H]2C(N)=O)sc1-c1ccnc(C(C)(C)C(F)(F)F)c1` ; retrieve measured %-inhibition at 1 µmol/L, PKCβ2.
2.32

Param item = `CCN1CCN(c2ccc(Nc3cc(N(C)C(=O)Nc4c(Cl)c(OC)cc(OC)c4Cl)ncn3)cc2)CC1` ; retrieve measured %-inhibition at 1 µmol/L, PKCβ2.
1.5

Param item = `Cn1cc(-c2cc3c(N4CCN(c5ncc([C@@](C)(N)c6ccc(F)cc6)cn5)CC4)ncnn3c2)cn1` ; retrieve measured %-inhibition at 1 µmol/L, PKCβ2.
-0.278

Param item = `CCc1nc(C(N)=O)c(Nc2ccc(N3CCC(N4CCN(C)CC4)CC3)c(OC)c2)nc1NC1CCOCC1` ; retrieve measured %-inhibition at 1 µmol/L, PKCβ2.
31

Param item = `Cn1cnc2c(F)c(Nc3ccc(Br)cc3Cl)c(C(=O)NOCCO)cc21` ; retrieve measured %-inhibition at 1 µmol/L, PKCβ2.
-2

Param item = `Cn1cnc2c(F)c(Nc3ccc(Br)cc3F)c(C(=O)NOCCO)cc21` ; retrieve measured %-inhibition at 1 µmol/L, PKCβ2.
-1.88

Param item = `C[C@H]1Oc2cc(cnc2N)-c2c(nn(C)c2C#N)CN(C)C(=O)c2ccc(F)cc21` ; retrieve measured %-inhibition at 1 µmol/L, PKCβ2.
4

Param item = `O=C(Nc1cnn2ccc(N3CCC[C@@H]3c3cc(F)ccc3F)nc12)N1CC[C@H](O)C1` ; retrieve measured %-inhibition at 1 µmol/L, PKCβ2.
-2

Param item = `CO[C@]1(C(=O)N[C@@H](C)c2ccc(-n3cc(F)cn3)nc2)CC[C@H](c2nc(C)cc(Nc3cc(C)[nH]n3)n2)CC1` ; retrieve measured %-inhibition at 1 µmol/L, PKCβ2.
-1.78

Param item = `Cc1cc(Nc2ncnc3ccc(NC4=NC(C)(C)CO4)cc23)ccc1Oc1ccn2ncnc2c1` ; retrieve measured %-inhibition at 1 µmol/L, PKCβ2.
-1.5

Param item = `COc1cc2ncnc(Nc3ccc(F)c(Cl)c3)c2cc1NC(=O)/C=C/CN1CCCCC1` ; retrieve measured %-inhibition at 1 µmol/L, PKCβ2.
5.44

Param item = `FC(F)(F)c1ccc(CNc2ccc(Cc3c[nH]c4ncc(Cl)cc34)cn2)cn1` ; retrieve measured %-inhibition at 1 µmol/L, PKCβ2.
3.47

Param item = `C[C@H](Nc1ncnc2nc[nH]c12)c1cc2cccc(Cl)c2c(=O)n1-c1ccccc1` ; retrieve measured %-inhibition at 1 µmol/L, PKCβ2.
1.61

Param item = `C=CC(=O)N1CCC([C@@H]2CCNc3c(C(N)=O)c(-c4ccc(Oc5ccccc5)cc4)nn32)CC1` ; retrieve measured %-inhibition at 1 µmol/L, PKCβ2.
-1.66

Param item = `COc1ccc(CN2C3CC2CN(c2ccc(-c4cc(OCC(C)(C)O)cn5ncc(C#N)c45)cn2)C3)cn1` ; retrieve measured %-inhibition at 1 µmol/L, PKCβ2.
-1.06

Param item = `COC(=O)N[C@@H](C)CNc1nccc(-c2cn(C(C)C)nc2-c2cc(Cl)cc(NS(C)(=O)=O)c2F)n1` ; retrieve measured %-inhibition at 1 µmol/L, PKCβ2.
2.15

Param item = `CCn1c(=O)c(-c2cc(NC(=O)Nc3ccccc3)c(F)cc2Br)cc2cnc(NC)cc21` ; retrieve measured %-inhibition at 1 µmol/L, PKCβ2.
-0.488
